Measured phosphorylation enrichment of individual entries
# assay.system: EPHB2 (UniProt P29323)
# Sequence (P29323 whole entry, looked up): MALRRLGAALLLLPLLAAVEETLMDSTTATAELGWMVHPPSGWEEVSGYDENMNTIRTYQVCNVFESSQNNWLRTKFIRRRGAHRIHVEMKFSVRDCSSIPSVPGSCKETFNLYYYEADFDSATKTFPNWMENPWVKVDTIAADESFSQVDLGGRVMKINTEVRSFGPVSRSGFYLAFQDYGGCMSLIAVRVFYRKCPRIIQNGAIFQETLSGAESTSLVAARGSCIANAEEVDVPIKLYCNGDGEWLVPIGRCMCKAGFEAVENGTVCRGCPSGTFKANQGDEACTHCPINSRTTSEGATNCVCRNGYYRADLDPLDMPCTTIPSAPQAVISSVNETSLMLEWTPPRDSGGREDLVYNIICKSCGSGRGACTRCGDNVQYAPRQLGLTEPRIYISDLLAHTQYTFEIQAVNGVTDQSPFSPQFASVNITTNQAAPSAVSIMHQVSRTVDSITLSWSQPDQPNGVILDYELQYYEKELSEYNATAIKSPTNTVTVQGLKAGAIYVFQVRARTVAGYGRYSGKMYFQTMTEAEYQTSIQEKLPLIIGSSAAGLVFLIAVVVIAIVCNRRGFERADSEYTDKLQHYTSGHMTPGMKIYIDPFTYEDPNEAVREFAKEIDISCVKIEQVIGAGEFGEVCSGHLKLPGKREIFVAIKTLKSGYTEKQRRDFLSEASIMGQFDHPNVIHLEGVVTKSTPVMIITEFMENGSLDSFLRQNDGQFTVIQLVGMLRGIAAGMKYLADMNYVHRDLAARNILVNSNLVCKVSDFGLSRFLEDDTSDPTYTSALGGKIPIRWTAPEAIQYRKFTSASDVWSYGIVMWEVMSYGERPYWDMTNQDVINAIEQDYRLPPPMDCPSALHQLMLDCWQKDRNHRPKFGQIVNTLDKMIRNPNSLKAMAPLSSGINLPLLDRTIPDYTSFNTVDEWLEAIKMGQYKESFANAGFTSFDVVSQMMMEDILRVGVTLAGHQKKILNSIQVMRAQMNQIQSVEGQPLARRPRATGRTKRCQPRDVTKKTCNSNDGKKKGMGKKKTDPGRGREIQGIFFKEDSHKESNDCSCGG
# test.details: phosphorylation enrichment, bacterial display (enrichment ratio); higher = better substrate or ligand; peptides without Tyr show the background;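 note: 11-residue human phosphosite peptides and single-mutation variants displayed on the E. coli surface, counted by deep sequencing, each peptide's frequency after selection divided by its frequency in the unselected input library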;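 note: frequency after pTyr selection over input frequency; kinase dosed for 20-30% of maximal phosphorylation in three min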
No unit in the answer, please; the number alone is enough.

These solved cases illustrate the format of a correct answer.
| sequence.content | observed.result |
| --- | --- |
| FADGVYLALEE [DUOX2_Y70_Q71L_YF] | 0.991 |
| CEDMEYLESKQ [BTK_Y511_A508D] | 0.783 |
| GDFLSYREFHL [ERBIN_Y1107_S1112L_YF] | 0.527 |

Request: // returns reported phosphorylation enrichment for input GGTPLYMDRQG [AGXT_Y194]
Response: 0.501

Request: Record: GIVEDYRPPVY [ACVRL1_Y421_F425V]
Response: 0.547

Request: Record: TSYSGYRYHRH [NKAPL_Y94]
Response: 0.42

Request: Record: RVAFQYGVTDL [MYBPC3_Y340_I336V]
Response: 0.827

Request: Record: KDFNKYVAYIE [KDM4B_Y31]
Response: 0.449

====

# Tested on: AncSZ
# test.details: phosphorylation enrichment, bacterial display (enrichment ratio); higher = better substrate or ligand; peptides without Tyr show the background
Heads up, the class ranges for phosphorylation enrichment are bottom end: < 0.8; midrange: ≥ 0.8 and < 1; top end: ≥ 1

Examples with answers:
| sequence.content | cat |
| --- | --- |
| CTTIHYNYMCK [TP53_Y234_N239K] | bottom end |
| KDYETYQSFQN [CTNND2_Y1157_P1159S] | top end |
| QMVGKYASSYM [AVPR2_Y124_M123K] | bottom end |
| VMICAYLLHRG [PTEN_Y138] | top end |
| AAVDNYCRHNF [HLA-DRB1_Y107_T106N_YF] | bottom end |

Request: Form field 'band' for KSNSDYVDVLP [SH2D1B_Y127_N122K]
Response: top end

Request: Record: CRPPYYHRNCM [HGD_Y334_F329C]
Response: midrange

Request: Record: LLIMEYAKFGS [RET_Y806_V804M_YF]
Response: top end

Request: Record: APGDAYGDAGY [SYP_Y250]
Response: midrange

Request: Record: QSQQAYQEAFE [YWHAZ_Y149]
Response: top end

Request: Record: KMKGDYYCYLA [YWHAG_Y130_R132C]
Response: top end

Request: Record: SCPANYFAFKI [FAM3D_Y65_P60S]
Response: top end

Request: Record: YPPTHYIRRMP [SLC4A11_Y820_V824M]
Response: bottom end

Request: Record: NTGLEYIKFTW [HRH1_Y386_D385E]
Response: top end

====

Measured phosphorylation enrichment of individual entries
# assay.system: FGFR1 (UniProt P11362)
# Sequence (P11362 whole entry, looked up): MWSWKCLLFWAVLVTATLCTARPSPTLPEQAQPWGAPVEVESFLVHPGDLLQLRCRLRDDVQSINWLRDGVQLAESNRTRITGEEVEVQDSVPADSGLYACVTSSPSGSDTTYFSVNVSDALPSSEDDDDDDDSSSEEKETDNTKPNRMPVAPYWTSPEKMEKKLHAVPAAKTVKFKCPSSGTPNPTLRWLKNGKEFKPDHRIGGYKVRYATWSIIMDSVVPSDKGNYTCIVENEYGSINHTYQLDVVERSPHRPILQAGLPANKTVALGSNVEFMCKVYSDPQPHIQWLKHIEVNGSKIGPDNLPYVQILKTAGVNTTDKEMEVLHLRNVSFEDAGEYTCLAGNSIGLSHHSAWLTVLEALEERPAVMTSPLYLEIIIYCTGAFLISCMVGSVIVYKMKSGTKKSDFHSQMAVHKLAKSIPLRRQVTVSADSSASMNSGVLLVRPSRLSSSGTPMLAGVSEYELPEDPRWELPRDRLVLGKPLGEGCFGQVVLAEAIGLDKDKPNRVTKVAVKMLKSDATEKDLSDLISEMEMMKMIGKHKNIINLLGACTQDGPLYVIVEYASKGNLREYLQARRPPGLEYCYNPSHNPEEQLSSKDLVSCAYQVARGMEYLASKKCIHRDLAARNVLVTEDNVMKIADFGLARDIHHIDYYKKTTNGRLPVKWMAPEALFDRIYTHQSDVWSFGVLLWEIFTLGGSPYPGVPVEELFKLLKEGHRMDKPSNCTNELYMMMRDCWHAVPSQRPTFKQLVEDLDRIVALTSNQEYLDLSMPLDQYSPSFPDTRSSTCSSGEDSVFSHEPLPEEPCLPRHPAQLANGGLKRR
# test.details: phosphorylation enrichment, bacterial display (enrichment ratio); higher = better substrate or ligand; peptides without Tyr show the background
No unit in the answer, please; the number alone is enough.

| sequence.content | phosphorylation enrichment |
| --- | --- |
| RISRKYKKVRF [F8_Y442_G439S] | 0.986 |
| ASNFNYFYHRE [KCNA1_Y413_V408A] | 1.1 |
| LARDIYKNDYY [ROS1_Y2110] | 3.15 |

Moving on to the next sequence.
Request: // returns reported phosphorylation enrichment for input HPWPRYTTRAP [FNDC1_Y1281_Q1280R]
Response: 0.515

====

# Tested on: c-Src
# test.details: phosphorylation enrichment, bacterial display (enrichment ratio); higher = better substrate or ligand; peptides without Tyr show the background
Decide by phosphorylation enrichment: equal to or exceeding 0.5 means YES, less means NO.

Examples with answers:
| sequence.content | cat |
| --- | --- |
| LSGFCYRLSDQ [PDCD6_Y124_G123C] | YES |
| EWQQTYTFDSG [JUP_Y20_YF] | YES |
| ETDPRYFDEEF [AKT1_Y437_T435P] | YES |

Request: Reported phosphorylation enrichment at or above 0.5? SAASSYSFSDL [EMD_Y59]
Response: NO

Request: Record: DVMDLYKTLRG [NR3C1_Y30_F29L]
Response: NO

Request: Record: WPLKWYAPECI [ZAP70_Y506]
Response: NO

Request: Record: SSNTEYLSASD [INSR_Y999_P997T]
Response: NO

Request: Record: KILTHYKQPHT [KMT2D_Y5349_R5351Q]
Response: NO

Request: Record: AKLVQYYMEHH [PTPN11_Y80_E76K]
Response: YES

Request: Record: FRARAYGFRGP [CHGA_Y381]
Response: YES

Request: Record: LFDHIYTTQSD [RET_Y928]
Response: YES

====

# assay.system: Fes (UniProt P07332)
# Sequence (P07332 whole entry, looked up): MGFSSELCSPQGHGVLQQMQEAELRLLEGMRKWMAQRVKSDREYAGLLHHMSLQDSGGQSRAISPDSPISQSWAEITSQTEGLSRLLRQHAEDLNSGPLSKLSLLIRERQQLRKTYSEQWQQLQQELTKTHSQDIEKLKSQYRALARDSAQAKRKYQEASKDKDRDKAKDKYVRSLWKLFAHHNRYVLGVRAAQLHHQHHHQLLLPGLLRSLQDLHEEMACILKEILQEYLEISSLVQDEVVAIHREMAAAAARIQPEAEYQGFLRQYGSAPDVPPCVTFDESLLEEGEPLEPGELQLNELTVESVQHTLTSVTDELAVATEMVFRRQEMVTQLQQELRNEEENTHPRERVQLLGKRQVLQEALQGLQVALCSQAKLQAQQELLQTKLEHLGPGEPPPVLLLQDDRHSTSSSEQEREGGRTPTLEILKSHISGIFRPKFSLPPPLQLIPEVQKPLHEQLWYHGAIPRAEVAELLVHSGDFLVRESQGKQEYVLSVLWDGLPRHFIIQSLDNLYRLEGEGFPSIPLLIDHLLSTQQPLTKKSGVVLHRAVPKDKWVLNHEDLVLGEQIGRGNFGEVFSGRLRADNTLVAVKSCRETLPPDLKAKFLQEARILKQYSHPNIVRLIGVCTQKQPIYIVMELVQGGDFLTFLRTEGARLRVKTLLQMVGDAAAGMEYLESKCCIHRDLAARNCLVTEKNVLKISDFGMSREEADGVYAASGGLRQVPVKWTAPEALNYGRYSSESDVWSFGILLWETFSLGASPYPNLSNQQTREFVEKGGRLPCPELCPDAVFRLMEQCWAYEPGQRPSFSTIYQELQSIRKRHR
# test.details: phosphorylation enrichment, bacterial display (enrichment ratio); higher = better substrate or ligand; peptides without Tyr show the background
endpoint: phosphorylation enrichment

These solved cases illustrate the format of a correct answer.
| sequence.content | phosphorylation enrichment |
| --- | --- |
| AAVLNYKAGRD [GRIN2A_Y737] | 0.482 |
| PLAVPYLDKPP [JMJD7_Y31] | 1.06 |
| GDYLSYREFHS [ERBIN_Y1107] | 0.903 |
| KFMVGYEMLAQ [GALT_Y339] | 0.897 |
| SLALFYRNVYH [RBL1_Y792_K794N] | 1.25 |

Request: // returns reported phosphorylation enrichment for input SFVMVYEGNAR [INSR_Y1038_G1035V]
Response: 1.25

Request: Record: SKEPFYVRCIK [MYO1D_Y586_YF]
Response: 1.18

Request: Record: PTTKTYFPHFY [HBA1_Y43_D48Y]
Response: 0.873

Request: Record: AAVDNYCRHNF [HLA-DRB1_Y107_T106N_YF]
Response: 0.53

Request: Record: INPIIYAFVGG [CCR5_Y297_E302G]
Response: 2.1

====

# Tested on: c-Src
# test.details: phosphorylation enrichment, bacterial display (enrichment ratio); higher = better substrate or ligand; peptides without Tyr show the background
endpoint: phosphorylation enrichment
No unit in the answer, please; the number alone is enough.

Request: // returns reported phosphorylation enrichment for input SDVDLYQVRTA [PSMD9_Y70]
Response: 1.89

Request: Record: KPPFSYNALIM [FOXG1_Y186]
Response: 0.512

Request: Record: EVDETYVPKKF [ALB_Y521_E525K]
Response: 0.408

Request: Record: FVTSMYNEILI [TRPV1_Y310_M315I]
Response: 0.621

Request: Record: SSSPTYPDLPF [GLI3_Y168]
Response: 0.565

Request: Record: PPTYRYERGSR [INPPL1_Y663]
Response: 0.39

Request: Record: KSNSDYVDVLP [SH2D1B_Y127_N122K]
Response: 0.449

Request: Record: TDGNGYISFNE [LCP1_Y28]
Response: 0.603

Request: Record: PDDPSYSLVDD [PSTPIP2_Y323_N322S]
Response: 0.91

Request: Record: CTTIHNNYMCN [TP53_Y234_Y234N]
Response: 0.385

====

# assay.system: Hck (UniProt P08631)
# Sequence (P08631 whole entry, looked up): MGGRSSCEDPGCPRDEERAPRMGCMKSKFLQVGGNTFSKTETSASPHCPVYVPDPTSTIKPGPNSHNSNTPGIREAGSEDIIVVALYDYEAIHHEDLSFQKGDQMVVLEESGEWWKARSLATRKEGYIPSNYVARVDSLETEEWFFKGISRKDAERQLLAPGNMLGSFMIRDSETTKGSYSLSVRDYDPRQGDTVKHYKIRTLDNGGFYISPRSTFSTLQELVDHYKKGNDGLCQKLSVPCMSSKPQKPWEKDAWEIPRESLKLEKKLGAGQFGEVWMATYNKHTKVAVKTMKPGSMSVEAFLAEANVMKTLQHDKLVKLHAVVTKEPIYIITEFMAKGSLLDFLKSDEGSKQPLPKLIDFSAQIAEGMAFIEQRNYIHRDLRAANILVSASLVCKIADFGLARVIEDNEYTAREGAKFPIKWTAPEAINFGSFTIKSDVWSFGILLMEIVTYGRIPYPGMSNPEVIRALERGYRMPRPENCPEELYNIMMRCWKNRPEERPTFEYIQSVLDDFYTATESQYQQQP
# test.details: phosphorylation enrichment, bacterial display (enrichment ratio); higher = better substrate or ligand; peptides without Tyr show the background
Heads up, the class ranges for phosphorylation enrichment are low range: < 0.5; mid range: ≥ 0.5 and < 0.8; high range: ≥ 0.8

Examples with answers:
| sequence.content | cat |
| --- | --- |
| CPASVYTKRCS [CPT2_Y508_R503C] | low range |
| PKGTGYIKTES [STAT1_Y701_L706S] | mid range |
| NPETCYQRLKK [TK2_Y190] | mid range |
| CEHRGFLYLAI [TEK_Y897_Y897F] | low range |
| FRDALYKSMVD [PHEX_Y250_F252S_YF] | low range |

Request: Form field 'band' for SVTYTYSPALN [TP53_Y126_C124Y]
Response: high range

Request: Record: GLRFGYGVLGG [KRTAP20-2_Y15_YF]
Response: low range

Request: Record: RREGVYRNNID [PTEN_Y46_L42R]
Response: low range

Request: Record: HELFVYKCDEN [DOCK3_Y548_YF]
Response: high range

====

# Tested on: c-Abl (mouse)
# test.details: phosphorylation enrichment, bacterial display (enrichment ratio); higher = better substrate or ligand; peptides without Tyr show the background
Measured phosphorylation enrichment of individual entries
No unit in the answer, please; the number alone is enough.

These solved cases illustrate the format of a correct answer.
| sequence.content | phosphorylation enrichment |
| --- | --- |
| VNYGAYINDFN [GLB1_Y488_K493N] | 0.703 |
| ISRDVYSTDYY [NTRK2_Y702_M697I] | 0.69 |
| KSRQIYDAFIM [GRK3_Y109_R104K_YF] | 16.5 |
| AGITAYQSCLQ [ADGRA2_Y377] | 0.918 |
| MHDSNYVSKGS [PDGFRA_Y849] | 0.508 |
| RVEDAYILTCN [CCT6A_Y229] | 0.565 |

Request: // returns reported phosphorylation enrichment for input RLLVVFPWTQR [HBB_Y36_Y36F]
Response: 1.11

Request: Record: RTCSSYTIEKI [PARP15_Y520_A521T]
Response: 0.84

Request: Record: FAASSYSFSDL [EMD_Y59_S54F]
Response: 0.707
